# Tested on: MCP-1
# METHOD_NOTES: MCSF-stimulation of human whole blood, MCP-1 levels by sandwich ELISA
# Assay type: cell-based
# MEASUREMENT_CONDITIONS: inhibitor 2 hours before MCSF 50 ng/ml, 22 hrs, MCP-1 in cell-free supernatants, read-out: Inhibitor activity versus MCP-1
For each record, write down the corresponding IC50.

QUERY: Give recorded IC50. CC(C)(C)OC(=O)C1CN(C(=O)c2ccc(-c3cnc(N)c(NCc4c(Cl)cccc4Cl)n3)cc2)CCN1 (centres unmarked)
RESULT: 300 to 1000 nM

QUERY: Specify reported IC50 for the compound shown: Nc1ncc(-c2cnn(CCNC3CCN[C@@H](C(=O)OC4CCCC4)C3)c2)nc1NCc1c(Cl)cccc1Cl (some centres unmarked) [Example 55, di-formate]
RESULT: 100 to 300 nM

QUERY: For the compound CC(C)C[C@H](NCc1cccc(-c2cnc(N)c(NCc3c(Cl)cccc3Cl)n2)c1)C(=O)OC(C)(C)C , give its measured IC50 value.
RESULT: > 5000 nM

QUERY: Give IC50 for CN(C(=O)c1ccc(-c2cnc(N)c(NCc3c(Cl)cccc3Cl)n2)cc1)C1CCN[C@@H](C(=O)OC2CCCC2)C1 (some centres unmarked)
RESULT: 300 to 1000 nM

QUERY: Dear colleague, please send me the reported IC50 for CC(=O)N(Cc1ccc(-c2cnc(N)c(NCc3c(Cl)cccc3Cl)n2)cc1)C1CCN[C@@H](C(=O)OC2CCCC2)C1 (some centres unmarked) when you can.
RESULT: < 100 nM

QUERY: Note IC50 for the compound shown: CC(C)(C)OC(=O)[C@@H]1CC(NCc2ccc(-c3cnc(N)c(NCc4c(Cl)cccc4Cl)n3)cc2)CCN1 (some centres unmarked)
RESULT: 300 to 1000 nM

QUERY: Read off the recorded IC50 for CC(C)(NCc1cccc(-c2cnc(N)c(NCc3c(Cl)cccc3Cl)n2)c1)C(=O)OC1CCCC1
RESULT: 1000 to 5000 nM

QUERY: Provide IC50 value for the following compound: Nc1ncc(-c2cccc(C(=O)NC3CCN[C@@H](C(=O)OC4CCCC4)C3)c2)nc1NCc1c(Cl)cccc1Cl (some centres unmarked)
RESULT: 1000 to 5000 nM

QUERY: Give me measured IC50, please, for this compound: CN(Cc1ccc(-c2cnc(N)c(NCc3c(Cl)cccc3Cl)n2)cc1)C1CCN[C@@H](C(=O)OC2CCCC2)C1 (some centres unmarked)
RESULT: < 100 nM

QUERY: Specify measured IC50 for CC(C)(C)OC(=O)[C@H]1CC(NCc2ccc(-c3cnc(N)c(NCc4c(Cl)cccc4Cl)n3)cc2Cl)CCN1 (some centres unmarked) .
RESULT: 300 to 1000 nM

QUERY: Kindly indicate its recorded IC50. Item: Nc1ncc(-c2cccc(CNC3(C(=O)OC4CCCC4)CCC3)c2)nc1NCc1c(Cl)cccc1Cl [Example 42, di-formate]
RESULT: 300 to 1000 nM

QUERY: Name the recorded IC50 of the item Nc1ncc(-c2cccc(CNC3CCN[C@H](C(=O)OC4CCCC4)C3)c2)nc1NCc1c(Cl)cccc1Cl (some centres unmarked) [Example 35, di-formate] in your answer.
RESULT: 300 to 1000 nM

QUERY: # return recorded IC50 for entry Nc1ncc(-c2ccc(C(=O)N3CCNC(C(=O)OC4CCCC4)C3)cc2)nc1NCc1c(Cl)cccc1Cl (centres unmarked)
RESULT: 300 to 1000 nM

QUERY: Name the recorded IC50 of the item Nc1ncc(-c2ccc(CNC3CCN[C@@H](C(=O)OC4CCCC4)C3)c(Cl)c2)nc1NCc1c(Cl)cccc1Cl (some centres unmarked) in your answer.
RESULT: 100 to 300 nM
